B1: library; a variant is named by its letters at N, in order (parent)
chain: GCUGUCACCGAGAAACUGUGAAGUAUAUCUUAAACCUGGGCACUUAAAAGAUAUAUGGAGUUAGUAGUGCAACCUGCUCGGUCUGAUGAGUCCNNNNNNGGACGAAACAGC

Variants of: B1
Assay: FACS-Seq fitted mean relative fluorescence mCherry/BFP with ligand (log10 relative fluorescence); HEK293T; ligand: cyclic di-GMP (c-di-GMP-II aptamer); ligand concentration (+) FACS-Seq: 1 mM; higher = higher reporter protein expression
Conditions: ligand present: yes
Below, each of the variants is paired with its reported FACS-Seq fitted mean (log10) value.

GCUGUCACCGAGAAACUGUGAAGUAUAUCUUAAACCUGGGCACUUAAAAGAUAUAUGGAGUUAGUAGUGCAACCUGCUCGGUCUGAUGAGUCCAUUCCAGGACGAAACAGC: -0.0711
GCUGUCACCGAGAAACUGUGAAGUAUAUCUUAAACCUGGGCACUUAAAAGAUAUAUGGAGUUAGUAGUGCAACCUGCUCGGUCUGAUGAGUCCCCGCCAGGACGAAACAGC: 0.127
GCUGUCACCGAGAAACUGUGAAGUAUAUCUUAAACCUGGGCACUUAAAAGAUAUAUGGAGUUAGUAGUGCAACCUGCUCGGUCUGAUGAGUCCGUCACUGGACGAAACAGC: 0.131

For the variant GCUGUCACCGAGAAACUGUGAAGUAUAUCUUAAACCUGGGCACUUAAAAGAUAUAUGGAGUUAGUAGUGCAACCUGCUCGGUCUGAUGAGUCCGAGAAGGGACGAAACAGC , report FACS-Seq fitted mean (log10).
-0.00672

For the variant GCUGUCACCGAGAAACUGUGAAGUAUAUCUUAAACCUGGGCACUUAAAAGAUAUAUGGAGUUAGUAGUGCAACCUGCUCGGUCUGAUGAGUCCACUCCCGGACGAAACAGC , report FACS-Seq fitted mean (log10).
-0.284

For the variant GCUGUCACCGAGAAACUGUGAAGUAUAUCUUAAACCUGGGCACUUAAAAGAUAUAUGGAGUUAGUAGUGCAACCUGCUCGGUCUGAUGAGUCCUCAGUCGGACGAAACAGC , report FACS-Seq fitted mean (log10).
-0.0482

Provenance of the data: the supplement of paper PMC6757056
